All values here come from PubChem BioAssay (NCI).

- Tested on: A549/ATCC NSCLC
- runDescription: NCI-60 one-dose screen, 48 h (100 = growth as untreated, 0 = no growth, -100 = all killed)
- conditionsUsed: 10 µM unless noted
This is part of a sample that, as a whole, favours compounds with a hit. Of some 83,000 tested, about 20% had one in any assay.
quantityMeasured: growth (%)

molecule: Nc1ncnc2c1N=C(c1ccc(Cl)cc1)CC(c1cccc(Nc3ccnc4cc(Cl)ccc34)c1)N2 (configuration not stated)
resultNumber: 84.5
//
molecule: Cc1ccc(Cc2cnc(NC(=O)/C=C/c3ccc(C)o3)s2)cc1
resultNumber: 35.7
//
molecule: CS(=O)(=O)Nc1cc(-c2ccc3ncnc(Nc4ccc(OCc5ccccn5)c(Cl)c4)c3c2)cnc1Cl
resultNumber: 11.8
//
molecule: O=c1oc2ccccc2cc1-c1nn(-c2ccccc2)cc1-c1nn[nH]n1
resultNumber: 97.7
//
molecule: COc1cc2c(cc1OCCCN1CCN(C(=S)SCCC(C#N)(c3ccccc3)c3ccccc3)CC1)N=C[C@@H]1CCCN1C2=O
resultNumber: -3.55
//
molecule: c1ccc(Cn2cc3c(c2-c2ccccc2)CCc2cnoc2-3)cc1
resultNumber: 59.6
//
molecule: CN(C)CCC(=O)C1CC1
resultNumber: 103
//
molecule: C#CCOc1cccc(Nc2ncnc3cc(NC(=O)CCl)ccc23)c1
resultNumber: -59.4
//
molecule: COc1ccc(C2[C@@H](Cl)C(=O)N2c2cc(OC)c(OC)c(OC)c2)cc1Cl (some centres not stated)
resultNumber: 14.8
//
molecule: COc1ccc2c(c1)C(C)Cc1c(ncnc1-n1cnc3cc(C)ccc31)N2C (configuration not stated)
resultNumber: 13.6
//
molecule: C=C(C)[C@@H]1CC[C@]2(COC3CCCCO3)CC[C@]3(C)[C@H](CC[C@@H]4[C@@]5(C)C=C(C=O)C(=O)C(C)(C)[C@@H]5CC[C@]43C)[C@@H]12 (some centres not stated)
resultNumber: -63.5
//
molecule: CCOc1ncc([N+](=O)[O-])c(OCC)n1
resultNumber: 98.9

---

- Tested on: U251 CNS
- runDescription: NCI-60 one-dose screen, 48 h
- conditionsUsed: 10 µM unless noted
Compounds without any hit were thinned out: in the full panel of roughly 83,000, 20% have a hit. Calls of active or inactive are those of the source. Rule for the calls: active = growth percent below 10; inactive = the rest.
Outcomes: active, inactive

compound: O=S(=O)(NCCNc1nccc(-c2c(-c3ccc(F)c(O)c3)nc3sccn23)n1)c1ccc(Cl)cc1
assignedLabel: inactive
--
compound: COCCn1cc(-c2nc(-c3cc4cccnc4n3C)cs2)c2ccccc21
assignedLabel: inactive
--
compound: CC1(C)CC(=O)C2=C(C1)C(c1ccc(Cl)cc1)n1ncc(C#N)c1N2 (configuration not stated)
assignedLabel: inactive
--
compound: O=C(Nc1cccnc1Nc1ccc(Cl)cc1)c1cn(Cc2cccc(Oc3ccccc3)c2)nn1
assignedLabel: inactive
--
compound: Cc1cc(O)cc(-c2nn(C)cc2-c2cc(N3CCOCC3)nc(-c3cccnc3)n2)c1
assignedLabel: inactive
--
compound: N#CC1=C(N)Oc2c(sc3c(F)cccc23)C1c1ccc([N+](=O)[O-])cc1 (configuration not stated)
assignedLabel: active
--
compound: N=C(N)c1ccc(OCCSCCOc2ccc(C(=N)N)cc2)cc1
assignedLabel: inactive
--
compound: O=c1cc(C(F)(F)F)c2cc(-c3cc4ccccc4c(=O)o3)c(O)cc2o1
assignedLabel: inactive
--
compound: COc1cc2c3c(c4c5ccccc5[nH]c4c2c(OC)c1OC)C(=O)N(CCN1CCCCC1)C3=O
assignedLabel: active
--
compound: COc1cc(N2C(=O)[C@H](Cl)C2c2ccc(SC)cc2)cc(OC)c1OC (some centres not stated)
assignedLabel: active
--
compound: CCOc1ccc(NC(=O)Nc2ccc(OCC)cc2)cc1
assignedLabel: inactive
--
compound: Clc1ccc(-c2cc(-c3ccccc3)nc(N3CCN(CCCNc4ccnc5cc(Cl)ccc45)CC3)n2)cc1
assignedLabel: active
--
compound: COc1cc(/C=C/C(=O)c2cccc(-n3cc(-c4ccc(Cl)cc4)[nH]c3=O)c2)ccc1O
assignedLabel: inactive
--
compound: CC1(C)CC[C@]2(CO)CC[C@]3(C)[C@](O)([C@H](O)C[C@@H]4[C@@]5(C)CCCNC(C)(C)[C@@H]5CC[C@]43C)[C@@H]2C1
assignedLabel: inactive
--
compound: c1cc(OCCN2CCCC2)ccc1CNc1ccc2nc(CCC3CCCCC3)[nH]c2c1
assignedLabel: active
--
compound: C#COc1cccc(Nc2ncnc3cc(NC(=O)[C@H](C)Cl)ccc23)c1
assignedLabel: active
--
compound: O=C(Nc1cc(Cl)cc(Cl)c1)Oc1c(Cl)c(Cl)c(Cl)c(Cl)c1Cl
assignedLabel: inactive
